# measuredTarget: Amine oxidase [flavin-containing] B (Homo sapiens)
# Sequence (P27338 whole entry): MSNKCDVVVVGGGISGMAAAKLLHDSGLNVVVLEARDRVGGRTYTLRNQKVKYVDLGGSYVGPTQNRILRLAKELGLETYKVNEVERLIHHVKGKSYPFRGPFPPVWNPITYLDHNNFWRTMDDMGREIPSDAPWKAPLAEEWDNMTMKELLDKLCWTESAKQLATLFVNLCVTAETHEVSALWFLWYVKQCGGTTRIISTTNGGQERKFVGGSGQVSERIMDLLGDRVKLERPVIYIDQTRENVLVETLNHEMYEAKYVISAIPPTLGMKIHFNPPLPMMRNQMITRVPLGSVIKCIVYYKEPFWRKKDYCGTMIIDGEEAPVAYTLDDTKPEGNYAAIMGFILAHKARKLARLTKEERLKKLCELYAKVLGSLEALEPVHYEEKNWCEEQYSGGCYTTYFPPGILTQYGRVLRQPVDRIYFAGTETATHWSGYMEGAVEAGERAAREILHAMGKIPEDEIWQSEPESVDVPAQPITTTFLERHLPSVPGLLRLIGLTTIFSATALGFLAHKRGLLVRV
# methodDescription: Inhibition of human recombinant MAO-B
pIC50: −log10 of the molar value.
quantityName: pIC50

Take a look at these entries with their results.
O=C1OCc2ccc(N3N=C(c4cc(F)ccc4O)CC3=O)cc21 | 6.25
CCCCC1OC(=O)c2cc(N3N=C(c4cc(C)ccc4O)CC3=O)ccc21 (stereo unspecified) | 5.13
CCCCC1OC(=O)c2cc(N3N=C(c4cc(Cl)cc(Br)c4O)CC3=O)ccc21 (stereo unspecified) | 5.19
CCCCCCC1OC(=O)c2cc(N3N=C(c4cc(F)ccc4O)CC3=O)ccc21 (stereo unspecified) | 5.20

A: CCCCC1OC(=O)c2cc(N3N=C(c4ccc(N(C)C)cc4O)CC3=O)ccc21 (stereo unspecified)
B: CCCCCCCC1OC(=O)c2cc(N3N=C(c4cc(Cl)ccc4O)CC3=O)ccc21 (stereo unspecified)
C: O=C1OCc2ccc(N3N=C(c4cccc(F)c4O)CC3=O)cc21
D: CCCCC1OC(=O)c2cc(N3N=C(c4cccc(Br)c4O)CC3=O)ccc21 (stereo unspecified)
E: O=C1OCc2ccc(N3N=C(c4ccccc4O)CC3=O)cc21
Sort low-to-high on pIC50, please. I would appreciate it if you listed the labels in the requested order.
D, A, C, B, E
(D: 4.98, A: 5.29, C: 6.05, B: 6.39, E: 6.66)

Where do these numbers come from? They come from ChEMBL document CHEMBL5620344.
